ASSAY SUMMARY: Stability in liver microsomes, rat
MEASUREMENT PARAMETERS: rat
TEST READOUT: AUC Mono (treprostinil formed) (µmol·min/L)

CCCCCC(CCC1C(O)CC2Cc3c(cccc3OCC(=O)O)CC21)OC(=O)CC (stereo not drawn) [Prodrug LV]	30.9
CCCCCC(CCC1C(O)CC2Cc3c(cccc3OCC(=O)O)CC21)OC(=O)OC (stereo not drawn) [Prodrug IV]	49.7
CCCCCC(CCC1C(O)CC2Cc3c(cccc3OCC(=O)O)CC21)OC(C)=O (stereo not drawn) [Prodrug XLIII]	8.0
CCCCCC(CCC1C(O)CC2Cc3c(cccc3OCC(=O)O)CC21)OP(=O)(O)O (stereo not drawn) [Prodrug VI]	31.4
CCCCCC(CCC1C(OC(=O)CC)CC2Cc3c(cccc3OCC(=O)O)CC21)OC(=O)CC (stereo not drawn) [Prodrug LXX, treprostinil dipropionate]	38.8
CCCCCC(CCC1C(OC(=O)OC)CC2Cc3c(cccc3OCC(=O)O)CC21)OC(=O)OC (stereo not drawn) [Prodrug LXXI, treprostinil dicarbonate]	33.5
